Assay: In vivo biodistribution in mice
Design: species or system normal CD-1 male mice
Details: iv, 120 min post injection
measured_quantity: Biodistribution: Lung (% dose/g)
// return numeric value only (unit: % dose/g, not printed)

Task item: Biodistribution: Lung lookup needed for O=C(O)CN1CCN(CC(=O)O)CCN(CC(=O)NC(P(=O)(O)O)P(=O)(O)O)CCN(CC(=O)O)CC1.[68Ga] [[^68Ga]BPAMD, reference compound] , thanks.
Reply: 0.45

Task item: Biodistribution: Lung lookup needed for O=C([O-])CN(CCN(CC(=O)[O-])Cc1cc(CCC(=O)NC(P(=O)(O)O)P(=O)(O)O)ccc1[O-])Cc1cc(CCC(=O)NCCCCCC(=O)NCCCC[C@H](NC(=O)N[C@@H](CCC(=O)O)C(=O)O)C(=O)O)ccc1[O-].[68Ga+3] [[^68Ga]1g] , thanks.
Reply: 0.47

Task item: Biodistribution: Lung lookup needed for O=C([O-])CN(CCN(CC(=O)[O-])Cc1cc(CCC(=O)NC(P(=O)(O)O)P(=O)(O)O)ccc1[O-])Cc1cc(CCC(=O)NCCNC(=O)CN2CCN(CC(=O)O)CCN(CC(=O)O)CCN(CC(=O)O)CC2)ccc1[O-].[68Ga+3] [[^68Ga]1h] , thanks.
Reply: 0.10
